Origin of measurements: patent US6114391A

Would you kindly list TD50 for each of these compounds?
Test details: horizontal screen test in mouse (impaired motor function, neurotoxicity; therapeutic index)
Format: in vivo
Run conditions: in vivo, po; mouse, p.o.; HCl salts; read-out: TD50 Horizontal screen
Form entry: value (mg/kg) — number only.

Item Cl.NC(=O)CNC1Cc2ccccc2C1 has what recorded TD50?
274

For the compound shown here, Cl.NC(=O)[C@H](CO)NC1Cc2ccccc2C1 , give the reported TD50.
1170

Which TD50 value is on record for CN(C1Cc2ccccc2C1)[C@H](CO)C(N)=O.Cl ?
689

====

Test details: horizontal screen test in mouse (impaired motor function, neurotoxicity; therapeutic index)
Type: in vivo
Run conditions: mouse, in vivo, po
Property measured: TD50 (mg/kg)
Please give a number only; it is taken to be in mg/kg.

Reported TD50 for NC(=O)CN[C@H]1CCc2ccccc21 [TEVA Comp. 2, (S)-2-(indanylamino)acetamide, reference compound] : what is it?
299

Fill in the blank: the reported TD50 of CS(=O)(=O)O.NC(=O)C(CO)NCc1ccc(OCCCc2ccccc2)cc1 (centres unmarked) [FCE 28245, reference compound] is ____.
1670

====

System: motor function, mouse
Test details: horizontal screen test in mouse (impaired motor function, neurotoxicity; therapeutic index)
Type: in vivo
Run conditions: ratio of TD50 (horizontal screen) and ED50 (MES), mouse p.o.
Could you please report measured T.I. (therapeutic index) for the items listed next?

Reported T.I. (therapeutic index), molecule CS(=O)(=O)O.NC(=O)C(CO)NCc1ccc(OCCCc2ccccc2)cc1 (stereo not drawn) [FCE 28245, reference compound] : ____
9

// lookup T.I. (therapeutic index) for NC(=O)[C@@H](CO)NC1Cc2ccccc2C1
44

What value of measured T.I. (therapeutic index) is listed for CN(C1Cc2ccccc2C1)[C@H](CO)C(N)=O.Cl ?
20

Can you share its T.I. (therapeutic index)? I mean this molecule: Cl.NC(=O)[C@H](CO)NC1Cc2ccccc2C1
27

// query T.I. (therapeutic index) value for entry Cl.NC(=O)CNC1Cc2ccccc2C1
13

Dear colleague, I am looking for the recorded T.I. (therapeutic index) of the following molecule: NC(=O)CN[C@H]1CCc2ccccc21 [TEVA Comp. 2, (S)-2-(indanylamino)acetamide, reference compound]
8

# T.I. (therapeutic index) lookup, item NC(=O)[C@@H](CO)N[C@H]1CCc2ccccc2C1
30

For the molecule C[C@H](NC1Cc2ccccc2C1)C(N)=O [CHF 3431, (S) 2-(2-indanylamino)propionamide] , what T.I. (therapeutic index) is on record?
11

May I ask what T.I. (therapeutic index) has been recorded for NC(=O)[C@H](CO)N[C@@H]1CCc2ccccc2C1 ?
29

====

System: tonic hind limb extensions (maximal electroshock), rat
Test details: maximal electroshock (MES) test in rat, incl. time course of anticonvulsant activity
Assay type: in vivo
Run conditions: po; rat
Please go through the items and note down their ED50.
Report as a plain number; the unit mg/kg is understood.

Query (compound): Cl.NC(=O)[C@H](CO)NC1Cc2ccccc2C1 ; field requested: ED50
31

Could you share which ED50 value was measured for NC(=O)[C@@H](CO)NC1Cc2ccccc2C1 ?
32

Reported ED50 for C[C@H](NCc1ccc(OCc2cccc(F)c2)cc1)C(N)=O [FCE 26743, reference compound] : what is it?
11

What measured ED50 goes with NC(=O)[C@@H](CO)N[C@H]1CCc2ccccc2C1 ?
19
